Each entry below carries its reported IC50.
Target: 2-5A-dependent ribonuclease (Mus musculus, UniProt Q05921)
Sequence (Q05921 whole entry): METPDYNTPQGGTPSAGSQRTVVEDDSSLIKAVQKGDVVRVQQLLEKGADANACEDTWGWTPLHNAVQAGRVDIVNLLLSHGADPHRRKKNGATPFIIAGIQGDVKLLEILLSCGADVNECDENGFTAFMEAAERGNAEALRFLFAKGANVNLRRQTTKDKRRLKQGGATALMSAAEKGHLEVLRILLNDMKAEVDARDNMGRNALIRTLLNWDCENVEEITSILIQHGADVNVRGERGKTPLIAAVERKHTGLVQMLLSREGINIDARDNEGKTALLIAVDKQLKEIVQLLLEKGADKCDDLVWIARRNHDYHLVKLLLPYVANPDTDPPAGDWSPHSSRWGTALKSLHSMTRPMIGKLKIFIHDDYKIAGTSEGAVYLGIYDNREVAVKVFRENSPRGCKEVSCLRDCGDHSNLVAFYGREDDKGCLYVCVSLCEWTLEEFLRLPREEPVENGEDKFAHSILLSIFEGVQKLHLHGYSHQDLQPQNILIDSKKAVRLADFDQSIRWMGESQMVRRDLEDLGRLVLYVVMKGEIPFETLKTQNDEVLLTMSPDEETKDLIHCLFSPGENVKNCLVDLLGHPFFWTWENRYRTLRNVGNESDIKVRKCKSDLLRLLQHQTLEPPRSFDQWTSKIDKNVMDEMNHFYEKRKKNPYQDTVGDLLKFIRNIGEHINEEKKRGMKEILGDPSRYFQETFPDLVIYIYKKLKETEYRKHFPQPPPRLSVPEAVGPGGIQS

Here are 3 compounds together with their reported answers.
{"compound": "Nc1ncnc2c1nc(N)n2[C@@H]1O[C@H](COP(=O)(O)O[C@@H]2[C@H](O)[C@@H](COP(=O)(O)O[C@@H]3[C@H](O)[C@@H](CO)O[C@H]3n3c(N)nc4c(N)ncnc43)O[C@H]2n2c(N)nc3c(N)ncnc32)[C@@H](O)[C@H]1O", "experimental_system": "2-5A-dependent ribonuclease (Mus musculus, UniProt Q05921)", "experimental_readout": "IC50", "val": "> 10 µM"}
{"compound": "[N-]=[N+]=Nc1nc2c(N)ncnc2n1C1O[C@H](COP(=O)(O)O[C@H]2C(n3c(N=[N+]=[N-])nc4c(N)ncnc43)O[C@H](COP(=O)(O)O)[C@H]2O)[C@@H](O)[C@H]1O (some centres not stated)", "experimental_system": "2-5A-dependent ribonuclease (Mus musculus, UniProt Q05921)", "experimental_readout": "IC50", "val": "5 µM"}
{"compound": "Nc1ncnc2c1nc(N)n2[C@@H]1O[C@H](COP(=O)(O)O[C@@H]2[C@H](O)[C@@H](COP(=O)(O)O[C@@H]3[C@H](O)[C@@H](COP(=O)(O)O[C@@H]4[C@H](O)[C@@H](CO)O[C@H]4n4c(N)nc5c(N)ncnc54)O[C@H]3n3c(N)nc4c(N)ncnc43)O[C@H]2n2c(N)nc3c(N)ncnc32)[C@@H](O)[C@H]1O", "experimental_system": "2-5A-dependent ribonuclease (Mus musculus, UniProt Q05921)", "experimental_readout": "IC50", "val": "1 µM"}

Short answer please: IC50, 2-5A-dependent ribonuclease (Mus musculus, UniProt Q05921), entry Nc1ncnc2c1nc(N)n2C1O[C@H](COP(=O)(O)O[C@H]2C(n3c(N)nc4c(N)ncnc43)O[C@H](CO)[C@H]2O)[C@@H](O)[C@H]1O (some centres not stated)
> 10 µM

Report IC50 for [N-]=[N+]=Nc1nc2c(N)ncnc2n1C1O[C@H](COP(=O)(O)O[C@H]2C(n3c(N=[N+]=[N-])nc4c(N)ncnc43)O[C@H](CO)[C@H]2O)[C@@H](O)[C@H]1O (some centres not stated) tested on 2-5A-dependent ribonuclease (Mus musculus, UniProt Q05921).
> 10 µM

Please state recorded IC50 (tested on 2-5A-dependent ribonuclease (Mus musculus, UniProt Q05921)) of Nc1ncnc2c1nc(N)n2[C@@H]1O[C@H](COP(=O)(O)O[C@@H]2[C@H](O)[C@@H](COP(=O)(O)O[C@@H]3[C@H](O)[C@@H](COP(=O)(O)O)O[C@H]3n3c(N)nc4c(N)ncnc43)O[C@H]2n2c(N)nc3c(N)ncnc32)[C@@H](O)[C@H]1O
> 10 µM

Recall the recorded IC50 for Nc1ncnc2c1nc(N)n2C1O[C@H](COP(=O)(O)O[C@H]2C(n3c(N)nc4c(N)ncnc43)O[C@H](COP(=O)(O)O)[C@H]2O)[C@@H](O)[C@H]1O (some centres not stated) with 2-5A-dependent ribonuclease (Mus musculus, UniProt Q05921) and state it.
> 10 µM

Where these numbers come from: ChEMBL document CHEMBL1144931
